Molecular target: Mitogen-activated protein kinase 9 (Homo sapiens)
Sequence (P45984 whole entry): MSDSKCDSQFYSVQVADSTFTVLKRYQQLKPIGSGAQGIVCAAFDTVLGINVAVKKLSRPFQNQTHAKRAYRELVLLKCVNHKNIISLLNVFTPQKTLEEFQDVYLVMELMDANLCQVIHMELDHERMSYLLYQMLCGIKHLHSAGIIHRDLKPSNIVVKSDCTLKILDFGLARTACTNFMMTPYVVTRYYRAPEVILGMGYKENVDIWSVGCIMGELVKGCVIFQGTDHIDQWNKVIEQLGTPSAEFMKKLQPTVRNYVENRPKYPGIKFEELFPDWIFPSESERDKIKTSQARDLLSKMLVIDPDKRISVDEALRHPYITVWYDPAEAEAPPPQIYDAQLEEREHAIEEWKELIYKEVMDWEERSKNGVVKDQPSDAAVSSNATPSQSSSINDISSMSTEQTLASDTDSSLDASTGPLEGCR
Experiment: Inhibition of JNK2
READOUT LABEL: Ki (nM)
Your answer should be a plain number; it is taken to be in nM.

O[C@H]1CC[C@H](Nc2nccc(-c3c[nH]nc3C3CCCOC3)n2)CC1 (some centres not stated)	17

// next entry
I am curious: what Ki value has been reported for CN(C)c1c(-c2ccnc(N[C@H]3CC[C@H](O)CC3)n2)cnn1Cc1ccccc1 ? 6

---

Parameter pIC50: see the listing below.
Molecular target: Mitogen-activated protein kinase 10 (Homo sapiens, UniProt P53779)
Sequence (P53779 whole entry): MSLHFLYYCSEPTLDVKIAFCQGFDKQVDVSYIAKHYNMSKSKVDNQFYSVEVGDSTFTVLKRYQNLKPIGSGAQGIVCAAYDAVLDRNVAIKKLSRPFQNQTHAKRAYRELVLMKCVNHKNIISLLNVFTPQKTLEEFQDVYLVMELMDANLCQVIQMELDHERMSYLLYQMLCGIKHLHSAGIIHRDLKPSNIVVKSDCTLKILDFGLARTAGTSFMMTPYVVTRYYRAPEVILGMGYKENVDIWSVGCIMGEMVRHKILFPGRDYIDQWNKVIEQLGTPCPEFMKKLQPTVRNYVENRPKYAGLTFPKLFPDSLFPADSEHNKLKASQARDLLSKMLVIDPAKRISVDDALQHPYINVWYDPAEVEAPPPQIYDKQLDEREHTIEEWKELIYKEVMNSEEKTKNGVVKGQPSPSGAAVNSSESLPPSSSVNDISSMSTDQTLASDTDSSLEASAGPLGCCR
Experiment: Inhibition of JNK3
The scale used: pIC50 is minus the common logarithm of the concentration in molar units.

CCCNc1nccc(-c2c(-c3ccc(F)cc3)nc3n2[C@H](Cc2ccc(OC)cc2)CC3)n1	7.96

Shifting focus to the compound that follows.
API: value(readout=pIC50, system=Mitogen-activated protein kinase 10 (Homo sapiens, UniProt P53779)) for record CN(C)CCCC(=O)Nc1cc(C(=O)O)cc(-c2n[nH]c3cc(Nc4ccccc4Cl)ccc23)c1 8.52

---

Assay: Oral bioavailability in rat
Assay type: ADME, organism-based
Details: in vivo
READOUT LABEL: bioavailability (%)
Express your answer in %, writing the number without its unit.

Looking for the measured bioavailability of N#C/C(=C1/Nc2ccccc2S1)c1ccnc(NCCc2cccnc2)n1 , can you help? 38

---

The following compounds are shown together with reported pKi values.
Biological target: Mitogen-activated protein kinase 8 (Homo sapiens, UniProt P45983)
Sequence (P45983 whole entry): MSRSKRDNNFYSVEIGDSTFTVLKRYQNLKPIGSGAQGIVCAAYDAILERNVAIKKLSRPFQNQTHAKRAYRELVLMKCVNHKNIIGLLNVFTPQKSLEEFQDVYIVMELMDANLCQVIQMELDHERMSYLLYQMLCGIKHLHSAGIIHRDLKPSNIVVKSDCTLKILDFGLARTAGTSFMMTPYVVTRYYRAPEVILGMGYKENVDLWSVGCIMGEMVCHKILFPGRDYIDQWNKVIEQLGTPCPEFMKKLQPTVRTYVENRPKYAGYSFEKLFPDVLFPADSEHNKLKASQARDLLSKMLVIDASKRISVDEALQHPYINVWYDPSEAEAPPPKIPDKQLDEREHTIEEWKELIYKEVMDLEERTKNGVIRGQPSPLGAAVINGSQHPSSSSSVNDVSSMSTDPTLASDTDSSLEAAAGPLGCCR
Test: Inhibition of JNK1
As a rule, pKi stands for the negative log10 of the concentration, concentration in M.

O[C@H]1CC[C@H](Nc2nccc(-c3c[nH]nc3C3CCCOC3)n2)CC1 (some centres not stated)	8.05

Lab note: next compound to report on.
If you can, please state the reported pKi value of CN(C)c1c(-c2ccnc(N[C@H]3CC[C@H](O)CC3)n2)cnn1Cc1ccccc1 . 8.52

The measurements presented in this section are drawn from ChEMBL document CHEMBL1156270.
